Entries and their measured z-score follow.
Assay: A549 cell viability effects, profiling panel, calcein-AM fluorescence, 48 h, basal (AID 1162); further: test concentration not given here
Conditions: higher = more signal
API doc: respond with a numeric literal and nothing else, no unit.

Worked examples, 3 molecules total:
molecule=COc1ccc(C#Cc2ccc3c(c2)[C@]2(C(=O)N3)[C@H](C(=O)NC[C@H](O)c3ccccc3)[C@H]3C(=O)O[C@H](c4ccccc4)[C@H](c4ccccc4)N3[C@@H]2c2ccccc2OCCO)cc1 quantity=z-score numeric_result=-1.86
molecule=COC(=O)[C@@]1(Cc2ccc(OC)cc2)[C@H]2c3cc(C(=O)N4CCCC4)n(CCc4c[nH]c5cc(F)ccc45)c3C[C@H]2CN1C(=O)c1ccccc1 quantity=z-score numeric_result=0.866
molecule="COc1ccc(C(O)C2C=CC3C(=O)N(C)C(=O)C3N2Nc2ccccc2)cc1OCc1ccccc1 (centres undefined)" quantity=z-score numeric_result=-0.433

Kindly consider the entry below.
Fill in z-score for record N#Cc1ccc(NN2C(C(O)C3CCCCC3)C=CC3C(=O)N(c4ccccc4)C(=O)C32)cc1 (centres undefined)
-0.669
